Measured RAT MICROSOMAL STABILITY (% REMAINING AFTER 30 MINUTES) values are reported for all entries that follow.
measurementProtocol: In vitro rat microsomal stability assay
Assay type: in vitro ADME, rat (Sprague-Dawley)
conditions: Sprague-Dawley, rat, microsomes, 0.5 h, 0.5 μM, pH 7.4
metric: RAT MICROSOMAL STABILITY (% REMAINING AFTER 30 MINUTES) (%)

>  <compound>
OC1CC(c2ccnc(C(F)(F)F)c2)(C(O)c2ccccn2)C1 (stereo not drawn) [Example 306]

>  <unitOfMeasurement>
%

>  <rel>
>

>  <resultValue>
85

$$$$
>  <compound>
OC(c1ccccn1)C1(c2cccc(C(F)(F)F)c2)CC(F)(F)C1 (stereo not drawn)

>  <unitOfMeasurement>
%

>  <rel>
=

>  <resultValue>
18

$$$$
>  <compound>
CC1(O)CC(c2cc(C(F)(F)F)ccn2)(C(O)c2ccccn2)C1 (stereo not drawn)

>  <unitOfMeasurement>
%

>  <rel>
=

>  <resultValue>
70

$$$$
>  <compound>
O[C@H](c1ccccn1)[C@]1(c2ccc(C(F)(F)F)cc2)C[C@H](O)C1

>  <unitOfMeasurement>
%

>  <rel>
>

>  <resultValue>
85

$$$$
>  <compound>
OC(c1ncccn1)C1(c2ccc(Cl)c(Cl)c2)CCC1 (stereo not drawn)

>  <unitOfMeasurement>
%

>  <rel>
=

>  <resultValue>
9.5

$$$$
>  <compound>
OC(c1ccccn1)C1(c2cccc(C(F)(F)F)c2)CCCO1 (single isomer, unassigned) [Example 106]

>  <unitOfMeasurement>
%

>  <rel>
=

>  <resultValue>
1.6

$$$$
>  <compound>
CC(c1ccc(F)cc1)C1(C(O)c2ccccn2)CCC1 (stereo not drawn)

>  <unitOfMeasurement>
%

>  <rel>
=

>  <resultValue>
0.23

$$$$
>  <compound>
OC(c1ccccn1)C1(c2ccc(Oc3ccccc3)cc2)CCC1 (stereo not drawn)

>  <unitOfMeasurement>
%

>  <rel>
=

>  <resultValue>
17

$$$$
>  <compound>
OC(c1ccccn1)C1(C2CCc3ccccc32)CCC1 (stereo not drawn)

>  <unitOfMeasurement>
%

>  <rel>
=

>  <resultValue>
0.29

$$$$

---

measurementProtocol: In vitro rat microsomal stability assay
Format: in vitro ADME, rat (Sprague-Dawley)
conditions: Sprague-Dawley, rat, microsomes, 0.5 h, 0.5 μM, pH 7.4
metric: RAT MICROSOMAL STABILITY (% REMAINING AFTER 30 MINUTES)

>  <molecule>
O[C@H](c1ccccn1)C1(c2cccc(C(F)(F)F)n2)CCC1 [Example 238]

>  <resultValue>
21%

$$$$
>  <molecule>
Cc1cccnc1[C@@H](O)C1(c2ccc(Cl)c(Cl)c2)CCC1 [Example 30]

>  <resultValue>
0.98%

$$$$
>  <molecule>
OC(C1CCc2cccnc21)C1(c2ccc(C(F)(F)F)cc2)CCC1 (centres unmarked) [Example 173]

>  <resultValue>
<0.01%

$$$$
>  <molecule>
OC(c1ccccn1)C1(c2ccc(F)c(F)c2)CCC1 (centres unmarked) [Example 4]

>  <resultValue>
4.2%

$$$$
>  <molecule>
OC1CC(c2cc(C(F)(F)F)ccn2)(C(O)c2ccccn2)C1 (centres unmarked) [Example 283]

>  <resultValue>
>85%

$$$$

---

experimentalTarget: human TRPV3 (Homo sapiens)
Construct: expressed in transfected cells
Sequence (Q8NET8 1-790): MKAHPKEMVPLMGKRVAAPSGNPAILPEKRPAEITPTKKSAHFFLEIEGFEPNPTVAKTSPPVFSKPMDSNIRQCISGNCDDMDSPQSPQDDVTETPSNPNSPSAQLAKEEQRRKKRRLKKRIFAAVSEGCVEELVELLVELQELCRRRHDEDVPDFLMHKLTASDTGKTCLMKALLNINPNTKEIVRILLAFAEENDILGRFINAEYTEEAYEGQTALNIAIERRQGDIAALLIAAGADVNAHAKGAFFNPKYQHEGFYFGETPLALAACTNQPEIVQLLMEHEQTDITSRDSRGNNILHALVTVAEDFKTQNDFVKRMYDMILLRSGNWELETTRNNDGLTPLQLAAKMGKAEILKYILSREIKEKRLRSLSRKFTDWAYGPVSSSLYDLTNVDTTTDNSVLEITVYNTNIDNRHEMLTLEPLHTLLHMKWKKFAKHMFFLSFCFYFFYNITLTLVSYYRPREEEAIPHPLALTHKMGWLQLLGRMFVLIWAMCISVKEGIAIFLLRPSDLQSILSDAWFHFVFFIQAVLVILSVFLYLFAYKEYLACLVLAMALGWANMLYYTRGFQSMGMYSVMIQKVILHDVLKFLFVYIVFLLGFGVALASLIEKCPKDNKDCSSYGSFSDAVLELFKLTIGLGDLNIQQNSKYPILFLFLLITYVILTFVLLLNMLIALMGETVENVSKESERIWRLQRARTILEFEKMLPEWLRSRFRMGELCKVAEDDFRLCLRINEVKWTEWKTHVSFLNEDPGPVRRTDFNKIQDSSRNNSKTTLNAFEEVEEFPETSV
measurementProtocol: In vitro antagonism of recombinant human TRPV3 activation (FLIPR Tetra calcium assay)
Assay type: cell-based
conditions: HEK293 cells stably expressing human TRPV3; agonist 2-APB at 80 μM; actual measured value shown parenthetically; in most cases average of at least two runs; read-out: IC50
// bucketize IC50: lower band = under 2 µM, central band = from 2 µM up to 5 µM, upper band = 5 µM and over

>  <compound>
OC(c1ccccn1)C1(c2ccc(-c3ccccc3)cc2)CCC1 (stereo not drawn)

>  <assignedCategory>
upper band

$$$$
>  <compound>
N[C@@H]1CCC[C@@H]1[C@@H](O)C1(c2ccc(OC(F)(F)F)cc2)CCC1

>  <assignedCategory>
lower band

$$$$
>  <compound>
OC(CC1(c2ccc(OC(F)(F)F)cc2)CCC1)c1ccccn1 (stereo not drawn)

>  <assignedCategory>
lower band

$$$$
>  <compound>
OC(c1ncccn1)C1(c2ccccc2F)CCC1 (stereo not drawn)

>  <assignedCategory>
upper band

$$$$
>  <compound>
OC(C1CCc2cccnc21)C1(c2ccc(F)c(F)c2)CCC1 (stereo not drawn) [Example 171]

>  <assignedCategory>
upper band

$$$$
>  <compound>
OC(c1ccccn1)C1(c2ccc(OC(F)(F)F)cc2)CCNCC1 (stereo not drawn)

>  <assignedCategory>
upper band

$$$$
>  <compound>
CC(c1cccc(Cl)c1)C1(C(O)c2ccccn2)CCC1 (stereo not drawn)

>  <assignedCategory>
upper band

$$$$
>  <compound>
OC(c1ccccn1)C1(c2ccc(OC(F)(F)F)cc2)CCCO1 (single isomer, unassigned) [Example 94]

>  <assignedCategory>
lower band

$$$$
>  <compound>
OC(C1CCCc2cccnc21)C1(c2ccccc2C(F)(F)F)CCC1 (stereo not drawn) [Example 195]

>  <assignedCategory>
upper band

$$$$
>  <compound>
NC1CCCC1C(O)C1(c2cccc(OC(F)(F)F)c2)CCC1 (stereo not drawn)

>  <assignedCategory>
central band

$$$$
>  <compound>
OC1CC(c2cccc(OC(F)(F)F)c2)(C(O)c2ccccn2)C1 (single isomer, unassigned) [Example 272]

>  <assignedCategory>
lower band

$$$$
>  <compound>
CC(C)(C)OC(=O)N1CCC(C2(C(O)c3ccccn3)CCC2)C1 (stereo not drawn)

>  <assignedCategory>
upper band

$$$$
>  <compound>
CC(=O)O[C@H](c1ccccn1)C1(c2ccc(OC(F)(F)F)cc2)CCC1

>  <assignedCategory>
upper band

$$$$
>  <compound>
OC(c1ccccn1)C1(c2ccc(C(F)(F)F)cc2)CC2(C1)OCCO2 (stereo not drawn)

>  <assignedCategory>
central band

$$$$
>  <compound>
N[C@H]1CCC[C@H]1[C@@H](O)C1(c2ccc(OC(F)(F)F)cc2)CCC1

>  <assignedCategory>
central band

$$$$
>  <compound>
OC(C1CCc2cccnc21)C1(c2cccc(C(F)(F)F)c2)CCC1 (stereo not drawn) [Example 186]

>  <assignedCategory>
upper band

$$$$
>  <compound>
OC(c1ccccn1)C1(c2ccccc2C(F)(F)F)CCC1 (stereo not drawn)

>  <assignedCategory>
upper band

$$$$
>  <compound>
OC1CC(c2cncc(C(F)(F)F)c2)(C(O)c2ccccn2)C1 (stereo not drawn) [Example 303]

>  <assignedCategory>
lower band

$$$$
>  <compound>
CC1(O)CC(c2cccc(C(F)(F)F)c2)(C(O)c2ccccn2)C1 (single isomer, unassigned) [Example 244]

>  <assignedCategory>
central band

$$$$
>  <compound>
N[C@H]1CCC[C@@H]1[C@H](O)C1(c2ccc(OC(F)(F)F)cc2)CCC1

>  <assignedCategory>
central band

$$$$
>  <compound>
O=C1CC(c2cncc(C(F)(F)F)c2)([C@H](O)c2ccccn2)C1

>  <assignedCategory>
upper band

$$$$
>  <compound>
NC1CCCC1C(O)C1(c2ccc(Cl)c(Cl)c2)CCC1 (stereo not drawn)

>  <assignedCategory>
lower band

$$$$
>  <compound>
OC(C1CCCc2cccnc21)C1(c2cccc(C(F)(F)F)c2)CCC1 (single isomer, unassigned) [Example 179]

>  <assignedCategory>
central band

$$$$
>  <compound>
Cc1cccc(C2(C(O)c3ccccn3)CCCO2)c1 (stereo not drawn)

>  <assignedCategory>
lower band

$$$$
>  <compound>
OC(c1ccccn1)C1(c2cccc(OC(F)(F)F)c2)CC2(C1)OCCO2 (stereo not drawn)

>  <assignedCategory>
central band

$$$$
>  <compound>
O=C1CC(c2ccc(F)c(Cl)c2)(C(O)c2ccccn2)C1 (stereo not drawn)

>  <assignedCategory>
upper band

$$$$
>  <compound>
CC(c1ccccc1F)C1(C(O)c2ccccn2)CCC1 (stereo not drawn)

>  <assignedCategory>
upper band

$$$$
>  <compound>
O=C1CC(c2ccc(C(F)(F)F)cc2)([C@H](O)c2ccccn2)C1 (single isomer, unassigned)

>  <assignedCategory>
central band

$$$$
>  <compound>
OC(c1ccccn1)C1(c2nc3ccccc3o2)CCC1 (stereo not drawn)

>  <assignedCategory>
central band

$$$$
>  <compound>
N[C@H]1CCC[C@@H]1[C@H](O)C1(c2ccc(Cl)cc2)CCC1

>  <assignedCategory>
central band

$$$$
>  <compound>
OC(c1ccccn1)C1(C2CCOc3ccccc32)CCC1 (stereo not drawn)

>  <assignedCategory>
upper band

$$$$
>  <compound>
CC1(O)CC(c2cccc(OC(F)(F)F)c2)(C(O)c2ccccn2)C1 (stereo not drawn)

>  <assignedCategory>
central band

$$$$
>  <compound>
OC(C1CCc2cccnc21)C1(c2ccc(Cl)c(Cl)c2)CCC1 (stereo not drawn) [Example 168]

>  <assignedCategory>
upper band

$$$$
>  <compound>
OC(c1ccccn1)C1(c2cccc(C(F)(F)F)c2)CC(F)(F)C1 (stereo not drawn)

>  <assignedCategory>
lower band

$$$$
>  <compound>
OC(c1ccccn1)C1(c2cccc(F)c2)CCCO1 (single isomer, unassigned) [Example 101]

>  <assignedCategory>
upper band

$$$$
>  <compound>
OC(C1CCCc2cccnc21)C1(c2cccc(OC(F)(F)F)c2)CCC1 (stereo not drawn) [Example 187]

>  <assignedCategory>
upper band

$$$$
